TARGET_DESC: M. tuberculosis shikimate kinase (MtSK) (Mycobacterium tuberculosis, UniProt P9WPY3)
Construct: His6 (N); made in house; host or cells: E. coli BL-21 (DE3)
Sequence (P9WPY3 whole entry): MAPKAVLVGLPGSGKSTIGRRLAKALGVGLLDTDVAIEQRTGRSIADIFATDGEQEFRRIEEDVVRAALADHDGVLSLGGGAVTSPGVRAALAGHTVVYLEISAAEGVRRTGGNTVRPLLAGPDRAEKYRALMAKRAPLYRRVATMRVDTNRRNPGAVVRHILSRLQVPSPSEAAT
TEST_DETAILS: Analysis of inhibitor kinetics / inhibitor modality (MtSK)
Assay type: biochemical
COND: SK species: Mt; shikimate varied, ATP fixed at 2.5 mM; read-out: αKi, SKM
OBSERVABLE: pKi
// field semantics: pKi = negative decimal log of concentration (mol/L)

Quick one: pKi of `Nc1ccc2c(O)c(N=Nc3ccc4c(O)cc(S(=O)(=O)O)cc4c3)c(S(=O)(=O)O)cc2c1` ? 6.22

Quick one: pKi of `Cc1cc(N=Nc2ccc(N=Nc3ccc(N=Nc4ccc(O)c(C(=O)O)c4)cc3)c(S(=O)(=O)O)c2C)c(N)cc1N` ? 6.15

###

TARGET_DESC: H. pylori shikimate kinase (HpSK) (Helicobacter pylori, UniProt P56073)
Construct: made in house; host or cells: Escherichia coli (stated for the mutants, which followed the wild-type procedure)
Sequence (P56073 whole entry): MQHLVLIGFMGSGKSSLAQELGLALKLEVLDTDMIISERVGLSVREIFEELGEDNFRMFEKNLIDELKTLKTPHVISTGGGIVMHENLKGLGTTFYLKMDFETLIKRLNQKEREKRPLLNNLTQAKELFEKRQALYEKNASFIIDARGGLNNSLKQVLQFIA
TEST_DETAILS: Analysis of inhibitor kinetics / inhibitor modality (HpSK)
Assay type: biochemical
COND: αKi, ATP, SK species: Hp; ATP varied, shikimate fixed at 1.6 mM
OBSERVABLE: pKi
// field semantics: pKi = negative decimal log of concentration (mol/L)

Quick one: pKi of Cc1cc(N=Nc2ccc(N=Nc3ccc(N=Nc4ccc(O)c(C(=O)O)c4)cc3)c(S(=O)(=O)O)c2C)c(N)cc1N [NSC45611] ? 5.96

###

TARGET_DESC: H. pylori shikimate kinase (HpSK) (Helicobacter pylori, UniProt P56073)
Construct: made in house; host or cells: Escherichia coli (stated for the mutants, which followed the wild-type procedure)
TEST_DETAILS: Analysis of inhibitor kinetics / inhibitor modality (HpSK)
Type: biochemical
COND: αKi, SKM, SK species: Hp; shikimate varied, ATP fixed at 2.5 mM
OBSERVABLE: pKi
// field semantics: pKi = negative decimal log of concentration (mol/L)

Quick one: pKi of `Cc1cc(N=Nc2ccc(N=Nc3ccc(N=Nc4ccc(O)c(C(=O)O)c4)cc3)c(S(=O)(=O)O)c2C)c(N)cc1N` ? 5.77

###

OBSERVABLE: IC50

Form entry - test system: M. tuberculosis shikimate kinase (MtSK) (Mycobacterium tuberculosis); read-out: IC50; compound: O=C(NNC(=O)C1c2ccccc2Oc2ccccc21)c1cccc([N+](=O)[O-])c1 [RH00037] < 100 µM

Form entry - test system: M. tuberculosis shikimate kinase (MtSK) (Mycobacterium tuberculosis); read-out: IC50; compound: O=C(NNC(=O)C1c2ccccc2Oc2ccccc21)c1cccc(F)c1 [RH00016] < 100 µM

Form entry - test system: M. tuberculosis shikimate kinase (MtSK) (Mycobacterium tuberculosis); read-out: IC50; compound: O=C1Nc2ccc(I)cc2/C1=C/c1cc(Br)c(O)c(Br)c1 [GW5074, reference compound] 29.6 µM

Form entry - test system: M. tuberculosis shikimate kinase (MtSK) (Mycobacterium tuberculosis); read-out: IC50; compound: N=C(NO)c1ccc(Oc2cc(Cl)cc(Cl)c2)c([N+](=O)[O-])c1 [SPB01099] < 100 µM

Form entry - test system: M. tuberculosis shikimate kinase (MtSK) (Mycobacterium tuberculosis); read-out: IC50; compound: O=S(=O)(O)c1cc(O)c2c(O)c(N=Nc3cccc4ccccc34)c(S(=O)(=O)O)cc2c1 [NSC45208] > 100 µM

Form entry - test system: M. tuberculosis shikimate kinase (MtSK) (Mycobacterium tuberculosis); read-out: IC50; compound: O=C(Nc1ccc(C(=O)Nc2ccc3c(O)cc(S(=O)(=O)O)cc3c2)cc1)c1ccccc1 [NSC37215] > 100 µM
